Examples of molecules with documented growth follow.
System: OVCAR-4 ovarian
Test: NCI-60 one-dose screen, 48 h (100 = growth as untreated, 0 = no growth, -100 = all killed)
Settings: 10 µM unless noted
Protocol: Growth inhibition of the OVCAR-4 human tumor cell line is measured as a screen for anti-cancer activity. Cells are grown in 96 well plates and exposed to the test compound for 48 hours. Compounds are tested at a single concentration, which is 10^-5 M for most compounds. The reported endpoint is percent growth (GI% or GIPRCNT), where numbers from 0 - 100% represent growth inhibition, and numbers from -100% - 0 represent cell death. For example, a value of 40 represents 60% growth inhibition. […]
About 83,000 compounds went through this panel and 20% of them were active in at least one assay; those are over-represented in the sample as a whole.
Report only the number, with the unit % understood.

Here are 8 molecules together with their reported answers.
COc1cc(/C=C/C(=O)c2nnn(-c3ccc(Cl)cc3)c2C)cc(OC)c1OC	34.7
COc1ccc(/C=C2\C(=O)Nc3ccc(Cl)cc32)cc1OCc1ccccn1	8.08
Cn1cc(-c2nc(N)nnc2-c2c[nH]c3ccc(F)cc23)c2cc(Br)cnc21	29.8
O=C(NN1C(=O)/C(=C/C=C/c2ccc([N+](=O)[O-])o2)SC1=S)c1cccc(O)c1	-100
COc1cc2oc(-c3cccc(C(=O)Nc4ccc(Cl)cc4)c3)cc(=O)c2c(OCCNC(=O)[C@@H](N)CCC(=O)O)c1OC	91.9
COc1c(F)ccc(C(=O)Nc2ccc3nc(NC(=O)C4CCCN(S(=O)(=O)c5ccc(C#N)cc5)C4)sc3c2)c1F (centres undefined)	86.3
Cn1cc(-c2nc(N)nnc2-c2c[nH]c3ccc(F)cc23)c2cccnc21	70.7
O=C1CC(Sc2n[nH]c(-c3ccncc3)n2)C(=O)N1c1ccc(Br)cc1 (centres undefined)	110

Could you now consider this next molecule?
// returns reported growth for input COc1cccc(COc2ccc(NC(=O)Nc3ccc(Cl)c(C(F)(F)F)c3)cc2)c1
45.2

* * *

test system: OVCAR-4 ovarian; assay: NCI-60 one-dose screen, 48 h; conditions: 10 µM unless noted
The panel holds about 83,000 compounds, 20% with a hit somewhere; the sample as a whole holds those more often. Activity calls are given as the source filed them. How the source made its calls: active means growth percent below 10; inactive means the rest.
Lab note: assign the record to one of active, inactive

As a guide, the following entries are already answered.
Cc1cc(C)n(-c2ccc3nnc(-c4ccccc4)n3n2)n1	inactive
CC1CN(c2oc(-c3ccc([N+](=O)[O-])cc3)nc2C#N)CC(C)O1 (centres undefined)	inactive
CCCCSc1nc(NCCc2c[nH]c3ccccc23)c(C#N)c(-c2ccc(OC)cc2)n1	inactive

Name the outcome recorded for COc1ccc(C(=O)/C=C/c2ccc(Oc3nc(Nc4ccc(F)cc4)nc(N(C)C)n3)c(OC)c2)cc1 in the assay.
inactive

Name the outcome recorded for Cc1c(C(=O)NNC(=O)c2ccc(Cl)cc2)nnn1-c1ccc(Br)cc1 in the assay.
inactive

Name the outcome recorded for COc1cc2oc(-c3cccc(C(=O)Nc4ccc(Cl)cc4)c3)cc(=O)c2c(OCC(=O)N[C@@H](Cc2ccccc2)C(=O)O)c1OC in the assay.
inactive

Name the outcome recorded for Cc1ccc(-c2nc(C#N)c(S(=O)(=O)N3CCN(S(=O)(=O)c4ccccc4)CC3)o2)cc1 in the assay.
active

Name the outcome recorded for COc1ccc2[nH]c(O)c(N=NC(=O)Cn3c(-c4ccccc4)nc4cc(C)ccc43)c2c1 in the assay.
inactive
